assay: Cytotoxicity against human CEM cells after 8 days by MTS assay; format: cell-based; conditions: CEM cells (CCRF-CEM)

[
  {
    "structure smiles": "CC(C)C[C@H]1CN(C(=O)[C@@H]2C[C@H]2c2ccccc2)[C@@H](CC(C)C)C(=O)N1",
    "CC50 at 192 h / µM": 40
  }
]

* * *

system: Hepatitis C virus; test: Antiviral activity against HCV1b infected in clone A and ET-lunet cells assessed as inhibition of viral replication after 4 days by RT-PCR analysis; assay type: functional, organism-based, Hepacivirus hominis; settings: genotype 1b, 96 h
observable: log10 of EC90 (log10 of the value in µM)

[
  {
    "structure smiles": "CC(C)C[C@H]1C(=O)N[C@@H](C2CCSCC2)CN1C(=O)c1cc(-c2ccc(F)cc2)on1",
    "system under test": "Hepatitis C virus",
    "observable": "log10 of EC90",
    "obs value": -0.06
  },
  {
    "structure smiles": "CC(C)C[C@H]1C(=O)N[C@@H](c2ccccc2F)CN1C(=O)c1cc(-c2ccc(F)cc2)on1",
    "system under test": "Hepatitis C virus",
    "observable": "log10 of EC90",
    "obs value": -1.00
  },
  {
    "structure smiles": "CC(C)C[C@H]1C(=O)N[C@@H](c2ccccc2)CN1C(=O)c1cc(-c2ccc(F)cc2)on1",
    "system under test": "Hepatitis C virus",
    "observable": "log10 of EC90",
    "obs value": -1.22
  },
  {
    "structure smiles": "CC(C)C[C@H]1CN(C(=O)/C=C/c2ccccc2Cl)[C@@H](CC(C)C)C(=O)N1",
    "system under test": "Hepatitis C virus",
    "observable": "log10 of EC90",
    "obs value": 0.99
  },
  {
    "structure smiles": "CC(C)C[C@H]1CN(C(=O)c2noc(-c3ccccc3)n2)[C@@H](CC(C)C)C(=O)N1",
    "system under test": "Hepatitis C virus",
    "observable": "log10 of EC90",
    "obs value": 0.15
  },
  {
    "structure smiles": "CC(C)C[C@H]1C(=O)N[C@@H](CN(C)C)CN1C(=O)c1cc(-c2ccc(F)cc2)on1",
    "system under test": "Hepatitis C virus",
    "observable": "log10 of EC90",
    "obs value": 0.44
  },
  {
    "structure smiles": "COc1ccc(-c2cc(C(=O)N3C[C@H](CC(C)C)NC(=O)[C@@H]3CC(C)C)no2)cc1",
    "system under test": "Hepatitis C virus",
    "observable": "log10 of EC90",
    "obs value": 0.13
  },
  {
    "structure smiles": "CC(C)C[C@H]1CN(C(=O)c2cc(-c3ccc(C#N)cc3)on2)[C@@H](CC(C)C)C(=O)N1",
    "system under test": "Hepatitis C virus",
    "observable": "log10 of EC90",
    "obs value": 0.18
  }
]

* * *

test system: Hepatitis C virus; assay: Antiviral activity against HCV1b infected in clone A and ET-lunet cells assessed as inhibition of viral replication after 4 days by RT-PCR analysis; type: functional, organism-based, Hepacivirus hominis; conditions: genotype 1b, 96 h
Kindly apply the following: satisfied if EC90 is less than 700 nM, not satisfied in every other case.

[
  {
    "structure smiles": "CC(C)C[C@H]1CN(C(=O)/C=C/c2ccc([N+](=O)[O-])cc2)[C@@H](CC(C)C)C(=O)N1",
    "answer label": "not satisfied"
  },
  {
    "structure smiles": "CC(C)C[C@H]1C(=O)N[C@@H](c2ccsc2)CN1C(=O)c1cc(-c2ccc(F)cc2)on1",
    "answer label": "satisfied"
  },
  {
    "structure smiles": "CC(C)C[C@H]1CN(C(=O)/C=C/c2ccccc2)[C@@H](CC(C)C)C(=O)N1",
    "answer label": "not satisfied"
  },
  {
    "structure smiles": "CC(C)C[C@H]1C(=O)N[C@@H](c2ccc(C(F)(F)F)cc2)CN1C(=O)c1cc(-c2ccc(F)cc2)on1",
    "answer label": "not satisfied"
  },
  {
    "structure smiles": "CCC[C@H]1CN(C(=O)c2cc(-c3ccc(F)cc3)on2)[C@@H](CC(C)C)C(=O)N1",
    "answer label": "satisfied"
  },
  {
    "structure smiles": "CC(C)C[C@H]1CN(C(=O)[C@@H]2C[C@H]2c2ccccc2)[C@H](CC(C)C)C(=O)N1",
    "answer label": "not satisfied"
  },
  {
    "structure smiles": "Cc1ccc(-c2cc(C(=O)N3C[C@H](CC(C)C)NC(=O)[C@@H]3CC(C)C)no2)cc1",
    "answer label": "not satisfied"
  },
  {
    "structure smiles": "CC(C)C[C@H]1CN(C(=O)/C=C/c2ccc(F)cc2F)[C@@H](CC(C)C)C(=O)N1",
    "answer label": "not satisfied"
  },
  {
    "structure smiles": "CC(C)C[C@H]1C(=O)N[C@@H](C2CC2)CN1C(=O)c1cc(-c2ccc(F)cc2)on1",
    "answer label": "not satisfied"
  },
  {
    "structure smiles": "CC(C)C[C@H]1C(=O)N[C@@H](c2cc[nH]c2)CN1C(=O)c1cc(-c2ccc(F)cc2)on1",
    "answer label": "satisfied"
  },
  {
    "structure smiles": "CCC[C@H]1CN(C(=O)[C@@H]2C[C@H]2c2ccccc2)[C@@H](CC(C)C)C(=O)N1",
    "answer label": "not satisfied"
  },
  {
    "structure smiles": "CC(C)C[C@H]1CN(C(=O)/C=C/c2ccc(N(C)C)cc2)[C@@H](CC(C)C)C(=O)N1",
    "answer label": "not satisfied"
  },
  {
    "structure smiles": "CC(C)C[C@H]1CN(C(=O)/C=C/c2ccc(Cl)cc2)[C@@H](CC(C)C)C(=O)N1",
    "answer label": "not satisfied"
  },
  {
    "structure smiles": "CC(C)C[C@H]1CN(C(=O)/C=C/c2ccc(Br)cc2)[C@@H](CC(C)C)C(=O)N1",
    "answer label": "not satisfied"
  },
  {
    "structure smiles": "CC(C)C[C@H]1CN(C/C=C/c2ccccc2)[C@@H](CC(C)C)C(=O)N1",
    "answer label": "not satisfied"
  },
  {
    "structure smiles": "CC(C)C[C@H]1CN(C(=O)c2cccc(-c3ccccc3)c2)[C@@H](CC(C)C)C(=O)N1",
    "answer label": "not satisfied"
  },
  {
    "structure smiles": "CC(C)C[C@H]1C(=O)N[C@@H](C2CCOCC2)CN1C(=O)c1cc(-c2ccc(F)cc2)on1",
    "answer label": "satisfied"
  },
  {
    "structure smiles": "COC(=O)c1ccc(/C=C/C(=O)N2C[C@H](CC(C)C)NC(=O)[C@@H]2CC(C)C)cc1",
    "answer label": "not satisfied"
  },
  {
    "structure smiles": "CC(C)C[C@H]1C(=O)N[C@@H](c2ccsc2Cl)CN1C(=O)c1cc(-c2ccc(F)cc2)on1",
    "answer label": "satisfied"
  },
  {
    "structure smiles": "CC(C)C[C@H]1CN(C(=O)/C=C/c2ccc(C(F)(F)F)cc2)[C@@H](CC(C)C)C(=O)N1",
    "answer label": "not satisfied"
  },
  {
    "structure smiles": "CC(C)C[C@H]1CN(C(=O)/C=C\\c2ccccc2)[C@@H](CC(C)C)C(=O)N1",
    "answer label": "not satisfied"
  },
  {
    "structure smiles": "CC(C)C[C@H]1C(=O)N[C@@H](C2CCCC2)CN1C(=O)c1cc(-c2ccc(F)cc2)on1",
    "answer label": "satisfied"
  },
  {
    "structure smiles": "CC(C)C[C@H]1CN(C(=O)c2ccc(-c3ccccc3)o2)[C@@H](CC(C)C)C(=O)N1",
    "answer label": "not satisfied"
  },
  {
    "structure smiles": "CC(C)C[C@H]1C(=O)N[C@@H](CO)CN1C(=O)c1cc(-c2ccc(F)cc2)on1",
    "answer label": "not satisfied"
  },
  {
    "structure smiles": "CC(C)C[C@H]1CN(C(=O)c2cc(-c3ccccc3)on2)[C@@H](CC(C)C)C(=O)N1",
    "answer label": "not satisfied"
  },
  {
    "structure smiles": "CC(C)C[C@H]1CN(C(=O)c2cc(-c3ccc(Cl)cc3)on2)[C@@H](CC(C)C)C(=O)N1",
    "answer label": "satisfied"
  },
  {
    "structure smiles": "CC(C)C[C@H]1C(=O)N[C@@H](c2nccs2)CN1C(=O)c1cc(-c2ccc(F)cc2)on1",
    "answer label": "not satisfied"
  },
  {
    "structure smiles": "CC(C)C[C@H]1CN(C(=O)[C@H]2C[C@@H]2c2ccccc2)[C@@H](CC(C)C)C(=O)N1",
    "answer label": "not satisfied"
  },
  {
    "structure smiles": "CC[C@H](C)[C@H]1CN(C(=O)[C@@H]2C[C@H]2c2ccccc2)[C@@H](CC(C)C)C(=O)N1",
    "answer label": "not satisfied"
  },
  {
    "structure smiles": "CC(C)C[C@H]1CN(C(=O)c2cc(-c3ccccc3)[nH]n2)[C@@H](CC(C)C)C(=O)N1",
    "answer label": "not satisfied"
  },
  {
    "structure smiles": "CC(C)C[C@H]1CN(C(=O)[C@@H]2C[C@H]2c2ccccc2)[C@@H](CC(C)C)C(=O)N1",
    "answer label": "not satisfied"
  },
  {
    "structure smiles": "CC(C)C[C@H]1CN(C(=O)c2csc(-c3ccccc3)n2)[C@@H](CC(C)C)C(=O)N1",
    "answer label": "not satisfied"
  },
  {
    "structure smiles": "CC(C)C[C@H]1CN(C(=O)c2cn(-c3ccccc3)cn2)[C@@H](CC(C)C)C(=O)N1",
    "answer label": "not satisfied"
  }
]

Measured values drawn from ChEMBL document CHEMBL3120066 for this set.
